conditions: in n-octanol, 283.06 K
PARAMETER: solubility (mole fraction)
Format: numeric value only, no unit, no commentary.

Input: Which solubility (mole fraction) value is on record for "Clc1ccccc1C(c1ccccc1)(c1ccccc1)n1ccnc1" ?
Output: 0.0118

* * *

details: in n-butyl acetate, 308.09 K
PARAMETER: solubility (mole fraction)
Format: numeric value only, no unit, no commentary.

Input: Which solubility (mole fraction) value is on record for "Clc1ccccc1C(c1ccccc1)(c1ccccc1)n1ccnc1" ?
Output: 0.0176

* * *

conditions: in isopropanol, 288.15 K
PARAMETER: solubility (mole fraction)

Input: Which solubility (mole fraction) value is on record for "Clc1ccccc1C(c1ccccc1)(c1ccccc1)n1ccnc1" ?
Output: 0.00723
